Molecular target: CLR/RAMP2 receptor (UniProt Q16602 23-461; O60895 43-175, limits assumed)
Sequence (Q16602 23-461 limits assumed, chain 1 of 2): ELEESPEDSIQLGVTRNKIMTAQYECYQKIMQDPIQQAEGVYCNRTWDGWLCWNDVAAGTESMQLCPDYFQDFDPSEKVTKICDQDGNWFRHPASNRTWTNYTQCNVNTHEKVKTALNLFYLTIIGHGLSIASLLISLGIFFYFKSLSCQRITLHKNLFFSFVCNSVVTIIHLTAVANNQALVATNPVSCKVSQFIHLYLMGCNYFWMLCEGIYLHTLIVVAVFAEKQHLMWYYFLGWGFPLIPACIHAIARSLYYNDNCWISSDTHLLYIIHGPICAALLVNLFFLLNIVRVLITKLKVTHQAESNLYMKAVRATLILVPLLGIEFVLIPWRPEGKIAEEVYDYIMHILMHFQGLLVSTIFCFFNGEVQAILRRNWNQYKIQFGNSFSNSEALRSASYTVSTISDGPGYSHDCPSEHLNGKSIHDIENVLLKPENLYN
Sequence (O60895 43-175 limits assumed, chain 2 of 2): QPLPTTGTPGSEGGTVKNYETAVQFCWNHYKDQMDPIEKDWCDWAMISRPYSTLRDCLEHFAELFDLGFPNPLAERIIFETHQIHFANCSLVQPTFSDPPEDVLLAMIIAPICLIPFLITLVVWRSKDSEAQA
Assay: cell-based or functional assay
Square brackets hold non-standard residues; d marks the D form. Ends that are not written are not given here. * marks the point of attachment. Palmitoyl = CCCCCCCCCCCCCCCC(=O)*; AEEA = NCCOCCOCC(=O)O
List of CLR/RAMP2 EC50 values.
READOUT TYPE: CLR/RAMP2 EC50 (nM)

INSERT INTO measurements (binder, measured_number) VALUES
  ('KGCRFGTCTVQKLAHQIYQFTDKDKDNVAPRSKISPQGY (Pal- at N-terminus; K(Pal); -NH2) [SEQ ID NO: 73]', 49),
  ('Ac-K(Palmitoyl)GCRFGTCTVQKLAHQIYQFTPAGRQDSAPVDPSSPHSY-NH2 (cysteine pairing not given here) [SEQ ID NO: 33]', 0.4),
  ('miniPEG-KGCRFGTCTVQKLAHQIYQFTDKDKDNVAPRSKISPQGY-NH2 (ends and bridges not checked; also: K(PAL), position not given here) [SEQ ID NO: 69]', 0.6),
  ('[AEEA]K(Palmitoyl)GCRFGTCTVQKLAHQIYQFTDKDKDSAPVDPSSPHSY-NH2 (ends and bridges not checked) [SEQ ID NO: 46]', 0.5);
